This collection of values is drawn from ChEMBL document CHEMBL1806410.

System: Aspergillus flavus
Experiment: Antifungal activity against Aspergillus flavus JLC 40437 by broth microdilution method
Assay type: functional
Cut-off 0.1 µg/mL on MIC: below means satisfied, at or above means not satisfied.

>>> class_label("CC(CO)Cn1ncn(-c2ccc(N3CCN(c4ccc(OC[C@H]5CO[C@](Cn6cncn6)(c6ccc(F)cc6F)O5)cc4)CC3)nc2)c1=O (stereo partly specified)")
"not satisfied"
>>> class_label("CC(C)(CO)Cn1ncn(-c2ccc(N3CCN(c4ccc(OC[C@H]5CO[C@](Cn6cncn6)(c6ccc(F)cc6F)O5)cc4)CC3)nc2)c1=O")
"not satisfied"
>>> class_label("CC(CO)Cn1ncn(-c2ccc(N3CCN(c4ccc(OC[C@H]5CO[C@](Cn6cncn6)(c6ccc(F)cc6F)O5)cc4)CC3)cn2)c1=O (stereo partly specified)")
"not satisfied"
>>> class_label("O=c1n(-c2ccc(N3CCN(c4ccc(OC[C@H]5CO[C@](Cn6cncn6)(c6ccc(F)cc6F)O5)cc4)CC3)nc2)cnn1Cc1ccccc1")
"not satisfied"
>>> class_label("CC(C)n1ncn(-c2ccc(N3CCN(c4ccc(OC[C@H]5CO[C@](Cn6cncn6)(c6ccc(F)cc6F)O5)cc4)CC3)cn2)c1=O")
"not satisfied"
>>> class_label("CC(CCO)n1ncn(-c2ccc(N3CCN(c4ccc(OC[C@H]5CO[C@](Cn6cncn6)(c6ccc(F)cc6F)O5)cc4)CC3)nc2)c1=O (stereo partly specified)")
"not satisfied"
>>> class_label("O=c1n(-c2ccc(N3CCN(c4ccc(OC[C@H]5CO[C@](Cn6cncn6)(c6ccc(F)cc6F)O5)cc4)CC3)cn2)cnn1CCO")
"satisfied"
>>> class_label("CC(C)Cn1ncn(-c2ccc(N3CCN(c4ccc(OC[C@H]5CO[C@](Cn6cncn6)(c6ccc(F)cc6F)O5)cc4)CC3)cn2)c1=O")
"satisfied"
>>> class_label("CC(C)n1ncn(-c2ccc(N3CCN(c4ccc(OC[C@H]5CO[C@](Cn6cncn6)(c6ccc(F)cc6F)O5)cc4)CC3)nc2)c1=O")
"not satisfied"
>>> class_label("CCC(C)n1ncn(-c2ccc(N3CCN(c4ccc(OC[C@H]5CO[C@](Cn6cncn6)(c6ccc(F)cc6F)O5)cc4)CC3)cn2)c1=O (stereo partly specified)")
"not satisfied"
>>> class_label("CC(C)Cn1ncn(-c2ccc(N3CCN(c4ccc(OC[C@H]5CO[C@](Cn6cncn6)(c6ccc(F)cc6F)O5)cc4)CC3)nc2)c1=O")
"satisfied"
